System: SW-620 colon
Assay: NCI-60 one-dose screen, 48 h
Settings: 10 µM unless noted
This is part of a sample that, as a whole, favours compounds with a hit. Of some 83,000 tested, about 20% had one in any assay. The source made the active and inactive calls. How the source made its calls: active means growth percent below 10; inactive means the rest.
Write down one outcome, taken from active, inactive

>>> print(df.to_string())
                                   compound  classification
0          c1cc(C2CCCCC2)ccc1-c1cnc2nonc2n1        inactive
1  Cn1cnc([N+](=O)[O-])c1S(=O)(=O)Oc1cccc2ccccc12          active
2        Clc1ccc(Cl)c(N=Cc2ccc3c(c2)OCO3)c1        inactive

Query: How was `c1ccc(-c2nnn(-c3ccccc3)n2)cc1` classified in this test?
Reply: inactive

Query: How was COc1ccc2c(c1)OC1=C(C(=O)OC1)C2c1cc(OC)c2c(c1)OCCO2 (stereo unspecified) classified in this test?
Reply: inactive

Query: How was `COc1ccc(/C(C)=N/NC(=O)c2ccc(S(C)(=O)=O)cc2)cc1OC` classified in this test?
Reply: inactive

====

System: EKVX NSCLC
Experiment: NCI-60 one-dose screen, 48 h (100 = growth as untreated, 0 = no growth, -100 = all killed)
Conditions: 10 µM unless noted
Compounds without any hit were thinned out: in the full panel of roughly 83,000, 20% have a hit.
Assign a class from recorded growth; defined classes: class A = under 70%, class B = from 70% up to 90%, class C = 90% and over

Past entries and their recorded results:
In [3]: df
Out[3]:
                                   compound  classification
0         CC(C)(C)c1ccc(OC(=O)Nc2ccccc2)cc1         class C
1  COc1cc(CN2CCC(N3CCCC3=O)c3ccccc32)cc(OC)c1OC (stereo not given)         class A
2  COc1ccc(-c2cc(-c3ccc(OC)cc3)c3sc(=O)[nH]c3n2)cc1         class B
3  NS(=O)(=O)c1ccc(CCn2c(SCC(=O)N/N=C/c3ccccc3O)nc3ccccc3c2=O)cc1         class B

Query: Dear colleague, I would appreciate it if you could identify the bin for CN1C(=O)N(C)C2C1NN=c1s/c(=C\c3ccc(C(F)(F)F)cc3)c(=O)n12 (stereo not given) and reply at your convenience.
Reply: class A

Query: Dear colleague, I would appreciate it if you could identify the bin for `O=C(CCl)N1c2ccccc2Oc2ccc3ccccc3c21` and reply at your convenience.
Reply: class A

Query: Dear colleague, I would appreciate it if you could identify the bin for `CC1(C)CN(CCNc2nccc(-c3c(-c4cccc(O)c4)nc4sccn34)n2)S(=O)(=O)N1` and reply at your convenience.
Reply: class C

Query: Dear colleague, I would appreciate it if you could identify the bin for `c1cn2cc(-c3ccc4ncn(C5CCCCC5)c4c3)nc(-c3ccc4c(c3)ncn4C3CCCCC3)c2n1` and reply at your convenience.
Reply: class A

====

Test system: HOP-62 NSCLC
Assay: NCI-60 one-dose screen, 48 h
Details: 10 µM unless noted
Compounds without any hit were thinned out: in the full panel of roughly 83,000, 20% have a hit. Active and inactive are the calls of the source. Rule for the calls: active = growth percent below 10; inactive = the rest.
Write down one outcome, taken from true (1) for active, false (0) for inactive

Past entries and their recorded results:
>>> df
                                   compound  classification
0  ClC1=NC(Cl)C(Cl)=N/C1=N\c1ncn[nH]1 (stereo unspecified)       false (0)
1  COc1ccc2nc(-c3ccc(-c4noc(-c5ccc(Cl)cc5)n4)cc3)[nH]c2c1       false (0)
2  Cc1nn(-c2ccccc2)c2nc3c(nc12)C1=NCCN1C(c1ccc(Cl)cc1)N3 (stereo unspecified)       false (0)
3  COc1cc(Cl)cc(-c2nn(C(=O)NCCN3CCOCC3)cc2-c2ccncc2)c1       false (0)
4  Cn1cnc([N+](=O)[O-])c1S(=O)(=O)Oc1ccccc1       false (0)
5  C=CCOC(=O)C1=C(C)NC2=C(C(=O)CCC2)C1c1ccc(F)cc1 (stereo unspecified)       false (0)
6          c1cc(C2CCCCC2)ccc1-c1cnc2nonc2n1       false (0)
7  O=C(Nc1ccc(Cl)cc1)c1cc(-c2ccc(Cl)cc2)c2sc(=O)[nH]c2n1        true (1)

Query: How was `CCCCn1cnc2c(SCc3ccc([N+](=O)[O-])cc3)nc(N)nc21` classified in this test?
Reply: false (0)

Query: How was `Clc1ccc(-c2cnc3nonc3n2)s1` classified in this test?
Reply: false (0)

Query: How was `CCN(CC)CC(=O)Nc1c(C)cc(C(=O)NN)cc1C` classified in this test?
Reply: false (0)
